- system_tested: T1, OX40-his (Homo sapiens (Human), UniProt P43489 29-214, limits assumed)
- T1 construct: Analyte of the Biacore 8K assay; also called Ag OX40-his; Antigen OX40-his; not shown: His tag
- T1 sequence: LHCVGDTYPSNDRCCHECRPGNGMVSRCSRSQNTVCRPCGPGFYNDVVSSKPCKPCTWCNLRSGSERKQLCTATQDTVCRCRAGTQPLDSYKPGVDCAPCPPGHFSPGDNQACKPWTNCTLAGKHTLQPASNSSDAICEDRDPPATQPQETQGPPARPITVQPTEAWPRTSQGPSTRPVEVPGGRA
- assay_summary: SPR Biacore 8K, antibody captured, OX40-his as analyte
quantity_name: kon (M⁻¹ s⁻¹)

[
  {
    "binder": "murine-human chimeric antibody derived from murine antibody A6 (chimeric IgG) (antibody, V domains shown, also called chimeric OX40 Ab) VH: EVQLQQSGPELVKPGASVKMSCKASGYTFTSYVMHWVKQKPGQGLEWIGYINPYNDGTKYNEKFKGKATLTSDKSSSTAYMELSSLTSEDSAVYYCANYYGSNYAMDYWGQGTSVTVSS VL: DIQMTQTTSSLSASLGDRVTISCRASQDIRNYLNWYQQKPDGTVKLLIYYTSRLHSGVPSRFSGSGSGTDYSLTISNLEQEDIATYFCQQGNTLPWTFGGGTKLEIKR",
    "numeric_result": 94200
  }
]
